meta.source: the supplement of paper PMC5908809

- Tested on: NKL (IL-2 2.5 ng/mL)
- assay comment: percent inhibition of viability; higher = more inhibition
- condition set: 72 h; 100 nM
outcome measure: percent inhibition of viability (%)

# compound, assay target, outcome measure, unit string, result
rows = [
    ("Cn1ncnc1[C@H]1c2n[nH]c(=O)c3cc(F)cc(c23)N[C@@H]1c1ccc(F)cc1 [Talazoparib] (max concentration tested 1000 nM)", "NKL (IL-2 2.5 ng/mL)", "percent inhibition of viability", "%", 84.1),
    ("CC(C)N(C[C@H]1O[C@@H](n2cnc3c(N)ncnc32)[C@H](O)[C@@H]1O)[C@H]1C[C@@H](CCc2nc3cc(C(C)(C)C)ccc3[nH]2)C1 [EPZ-5676] (max concentration tested 1000 nM)", "NKL (IL-2 2.5 ng/mL)", "percent inhibition of viability", "%", 18.4),
    ("CC(C)Oc1cc(Nc2nc(N[C@@H](C)c3ccc(F)cn3)ncc2Cl)n[nH]1 [AZ-23] (max concentration tested 1000 nM)", "NKL (IL-2 2.5 ng/mL)", "percent inhibition of viability", "%", 13),
    ("CC(C)n1cnc2c(NCCc3ccc(O)cc3)nc(-c3csc4ccccc34)nc21 [StemRegenin 1] (max concentration tested 10000 nM)", "NKL (IL-2 2.5 ng/mL)", "percent inhibition of viability", "%", 5.6),
    ("Cc1csc(-c2nnc(Nc3ccc(Oc4ncccc4-c4ccnc(N)n4)cc3)c3ccccc23)c1 [AMG-900] (max concentration tested 1000 nM)", "NKL (IL-2 2.5 ng/mL)", "percent inhibition of viability", "%", -9.7),
    ("O=C(CCCCCCNC(=O)c1cnc(N(c2ccccc2)c2ccccc2)nc1)NO [Rocilinostat] (max concentration tested 10000 nM)", "NKL (IL-2 2.5 ng/mL)", "percent inhibition of viability", "%", -8.09),
]

* * *

- System: normal primary NK cells, pool 1 (3 donors) (IL-2 2.5 ng/mL)
- assay comment: drug sensitivity score (DSS) (DSS units); higher = more sensitive; extreme values may be limits of the assay
- condition set: 72 h
Criterion: drug sensitivity score meeting or surpassing 7. Met: true. Not met: false.

# compound, class name
records = [
    ("C=C(c1ccc(C(=O)O)cc1)c1cc2c(cc1C)C(C)(C)CCC2(C)C [Bexarotene] (max concentration tested 10000 nM)", "false"),
    ("NS(=O)(=O)OC[C@@H]1C[C@@H](n2ccc3c(N[C@H]4CCc5ccccc54)ncnc32)C[C@@H]1O [Pevonedistat] (max concentration tested 10000 nM)", "true"),
    ("CS(=O)(=O)N1CCN(Cc2cc3nc(-c4cccc5[nH]ncc45)nc(N4CCOCC4)c3s2)CC1 [Pictilisib] (max concentration tested 10000 nM)", "true"),
    ("NC(=O)Nc1cc(-c2cccc(F)c2)sc1C(=O)N[C@H]1CCCNC1 [AZD7762] (max concentration tested 1000 nM)", "false"),
    ("NC(=O)c1cccc(-c2cccc(OC(=O)NC3CCCCC3)c2)c1 [URB597] (max concentration tested 1000 nM)", "false"),
]

* * *

Items are presented alongside their recorded percent inhibition of viability.
- System: NK-92 (IL-2 2.5 ng/mL)
- assay comment: percent inhibition of viability; higher = more inhibition
- condition set: 72 h; 1 nM
outcome measure: percent inhibition of viability (%)

# compound, result
measured = [
    ("CC(C)N(C[C@H]1O[C@@H](n2cnc3c(N)ncnc32)[C@H](O)[C@@H]1O)[C@H]1C[C@@H](CCc2nc3cc(C(C)(C)C)ccc3[nH]2)C1 [EPZ-5676] (max concentration tested 1000 nM)", -21.5),
    ("Cc1cc(Nc2nc(N[C@@H](C)c3ncc(F)cn3)ncc2Cl)[nH]n1 [AZD1480] (max concentration tested 1000 nM)", 3.14),
    ("NC1(c2ccc(-c3nc4ccn5c(=O)[nH]nc5c4cc3-c3ccccc3)cc2)CCC1 [MK-2206] (max concentration tested 1000 nM)", -11),
    ("Cc1cccc(-c2nn3c(c2-c2ccnc4ccc(C(N)=O)cc24)CCC3)n1 [Galunisertib] (max concentration tested 1000 nM)", -19.6),
    ("CCC(C)(C)C(=O)O[C@H]1C[C@@H](C)C=C2C=C[C@H](C)[C@H](CC[C@@H]3C[C@@H](O)CC(=O)O3)[C@H]21 [Simvastatin] (max concentration tested 10000 nM)", -8.62),
    ("N#CCNC(=O)c1ccc(-c2ccnc(Nc3ccc(N4CCOCC4)cc3)n2)cc1 [Momelotinib] (max concentration tested 10000 nM)", -4.89),
    ("CNC(=O)c1ccc2cc([C@@]3(O)CCn4cncc43)ccc2c1 [Orteronel] (max concentration tested 10000 nM)", -11.2),
    ("CO[C@@H](C(=O)N1Cc2[nH]nc(NC(=O)c3ccc(N4CCN(C)CC4)cc3)c2C1)c1ccccc1 [Danusertib] (max concentration tested 10000 nM)", 4),
    ("COc1cc([C@@H]2c3cc4c(cc3[C@@H](O[C@@H]3O[C@@H]5CO[C@@H](C)O[C@H]5[C@H](O)[C@H]3O)[C@H]3COC(=O)[C@H]23)OCO4)cc(OC)c1O [Etoposide] (max concentration tested 10000 nM)", -7.31),
    ("Oc1nc(-c2ccc(C(F)(F)F)cc2)nc2c1CSCC2 [XAV-939] (max concentration tested 10000 nM)", -10.9),
    ("c1ccc(Cn2c(-c3ccc(OC[C@H](C4CCNCC4)n4c(-c5ccccc5)nc5ccccc54)cc3)nc3ccccc32)cc1 [deltarasin] (max concentration tested 10000 nM)", -6.78),
]
